Biological target: T1, YvoA wild-type (Bacillus subtilis, UniProt O34817 1-243)
T1 sequence: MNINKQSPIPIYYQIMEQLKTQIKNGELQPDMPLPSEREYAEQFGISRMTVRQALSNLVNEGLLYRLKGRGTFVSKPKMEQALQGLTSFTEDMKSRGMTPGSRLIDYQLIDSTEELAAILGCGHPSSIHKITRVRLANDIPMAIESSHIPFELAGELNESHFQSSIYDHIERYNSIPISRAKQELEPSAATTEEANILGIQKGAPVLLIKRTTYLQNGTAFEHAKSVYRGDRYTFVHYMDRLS
Experiment: ITC
ASSAY_ENDPOINT: Kd

1. YvoA operator dsDNA (18mer) (dsDNA) DNA 1: ATTGGTATAGATCACTAG DNA 2: CTAGTGATCTATACCAAT; 131 nM

This collection of values is drawn from paper PMC2853113.
